# Tested on: Acinetobacter baumannii isolates
# PROTOCOL TEXT: Antimicrobial susceptibility test, disc diffusion method (CLSI M100-S24)
# Assay type: cell-based
# CONDITIONS: isolate AB1; disc diffusion
PROPERTY: Inhibition zone (mm)

INSERT INTO measurements (query_smiles, result_units, measured_number) VALUES
  ('CC(C)(O/N=C(\C(=O)N[C@@H]1C(=O)N2C(C(=O)[O-])=C(C[n+]3ccccc3)CS[C@H]12)c1csc(N)n1)C(=O)O', 'mm', 20),
  ('CCN1CCN(C(=O)N[C@@H](C(=O)N[C@@H]2C(=O)N3[C@@H]2SC(C)(C)[C@@H]3C(=O)O)c2ccccc2)C(=O)C1=O', 'mm', 21);

---

Catalogue of Inhibition zone readings, one per entry.
# Test system: Acinetobacter baumannii isolates
# PROTOCOL TEXT: Antimicrobial susceptibility test, disc diffusion method (CLSI M100-S24)
# Type: cell-based
# CONDITIONS: isolate AB20; disc diffusion
PROPERTY: Inhibition zone (mm)

INSERT INTO assay_data (molecule, measured_number) VALUES
  ('C[C@H]1COc2c(N3CCN(C)CC3)c(F)cc3c(=O)c(C(=O)O)cn1c23 [LEV, Levofloxacin]', 13),
  ('C[C@@H](O)[C@H]1C(=O)N2C(C(=O)O)=C(SCCN=CN)C[C@H]12 [IP, Imipenem]', 15);

---

# Test system: Acinetobacter baumannii isolates
# PROTOCOL TEXT: Antimicrobial susceptibility test, disc diffusion method (CLSI M100-S24)
# Assay type: cell-based
# CONDITIONS: isolate AB15; disc diffusion
PROPERTY: Inhibition zone (mm)

INSERT INTO assay_data (molecule, measured_number) VALUES
  ('C[C@H]1[C@H](NC(=O)/C(=N\OC(C)(C)C(=O)O)c2csc(N)n2)C(=O)N1S(=O)(=O)O [ATM, Aztreonam]', 11),
  ('NC[C@@H]1O[C@H](O[C@H]2[C@@H](O)[C@H](O[C@@H]3[C@@H](O)[C@H](N)C[C@H](N)[C@H]3O[C@H]3O[C@H](CN)[C@@H](O)[C@H](O)[C@H]3N)O[C@@H]2CO)[C@H](N)[C@@H](O)[C@@H]1O [NEO, Neomycin]', 13),
  ('CN(C)[C@@H]1C(O)=C(C(N)=O)C(=O)[C@@]2(O)C(O)=C3C(=O)c4c(O)cccc4[C@@](C)(O)[C@H]3C[C@@H]12 [TET, Tetracycline]', 19);

---

# Tested on: Acinetobacter baumannii isolates
# PROTOCOL TEXT: Antimicrobial susceptibility test, disc diffusion method (CLSI M100-S24)
# Format: cell-based
# CONDITIONS: isolate AB19; disc diffusion
PROPERTY: Inhibition zone (mm)

INSERT INTO results (query_smiles, result_units, measured_number) VALUES
  ('C[C@H]1COc2c(N3CCN(C)CC3)c(F)cc3c(=O)c(C(=O)O)cn1c23', 'mm', 11),
  ('C[C@H]1[C@H](NC(=O)/C(=N\OC(C)(C)C(=O)O)c2csc(N)n2)C(=O)N1S(=O)(=O)O', 'mm', 8),
  ('O=C(N[C@H](CO)[C@H](O)c1ccc([N+](=O)[O-])cc1)C(Cl)Cl', 'mm', 8),
  ('NC[C@@H]1O[C@H](O[C@H]2[C@@H](O)[C@H](O[C@@H]3[C@@H](O)[C@H](N)C[C@H](N)[C@H]3O[C@H]3O[C@H](CN)[C@@H](O)[C@H](O)[C@H]3N)O[C@@H]2CO)[C@H](N)[C@@H](O)[C@@H]1O', 'mm', 13),
  ('NCC[C@H](O)C(=O)N[C@@H]1C[C@H](N)[C@@H](O[C@H]2O[C@H](CN)[C@@H](O)[C@H](O)[C@H]2O)[C@H](O)[C@H]1O[C@H]1O[C@H](CO)[C@@H](O)[C@H](N)[C@H]1O', 'mm', 14),
  ('CN(C)[C@@H]1C(O)=C(C(N)=O)C(=O)[C@@]2(O)C(O)=C3C(=O)c4c(O)cccc4[C@@](C)(O)[C@H]3C[C@@H]12', 'mm', 17);
